# assay_details: Selection of a solvent for the active component: solubility judged by naked eye
# Type: physicochemical
# cond: Glycerol, 80 °C, organic solvent or mixture, thermodynamic from solid, solvent Glycerol; KRN7000 10 μg/ml; read-out: Judgment of solubility (by naked eye)
measurement_kind: solubility at 20 min

mol_smiles	reported_measurement
CCCCCCCCCCCCCCCCCCCCCCCCCC(=O)N[C@@H](CO[C@H]1O[C@H](CO)[C@H](O)[C@H](O)[C@H]1O)[C@H](O)[C@H](O)CCCCCCCCCCCCCC	> 10 µg/mL

* * *

# assay_details: Selection of a solvent for the active component: solubility judged by naked eye
# Type: physicochemical
# cond: Ethanol, 80 °C, organic solvent or mixture, thermodynamic from solid, solvent Ethanol; KRN7000 100 μg/ml; read-out: Judgment of solubility (by naked eye)
measurement_kind: solubility at 20 min

molecule	measurement_kind	reported_measurement
CCCCCCCCCCCCCCCCCCCCCCCCCC(=O)N[C@@H](CO[C@H]1O[C@H](CO)[C@H](O)[C@H](O)[C@H]1O)[C@H](O)[C@H](O)CCCCCCCCCCCCCC [KRN7000]	solubility at 20 min	> 100 µg/mL

* * *

# assay_details: Selection of a solvent for the active component: solubility judged by naked eye
# Format: physicochemical
# cond: Propylene glycol, 80 °C, organic solvent or mixture, thermodynamic from solid, solvent Propylene glycol; KRN7000 100 μg/ml; read-out: Judgment of solubility (by naked eye)

molecule	solubility at 20 min
CCCCCCCCCCCCCCCCCCCCCCCCCC(=O)N[C@@H](CO[C@H]1O[C@H](CO)[C@H](O)[C@H](O)[C@H]1O)[C@H](O)[C@H](O)CCCCCCCCCCCCCC [KRN7000]	10 to 100 µg/mL
